Target: 5-hydroxytryptamine receptor 1A (Homo sapiens)
Sequence (whole entry): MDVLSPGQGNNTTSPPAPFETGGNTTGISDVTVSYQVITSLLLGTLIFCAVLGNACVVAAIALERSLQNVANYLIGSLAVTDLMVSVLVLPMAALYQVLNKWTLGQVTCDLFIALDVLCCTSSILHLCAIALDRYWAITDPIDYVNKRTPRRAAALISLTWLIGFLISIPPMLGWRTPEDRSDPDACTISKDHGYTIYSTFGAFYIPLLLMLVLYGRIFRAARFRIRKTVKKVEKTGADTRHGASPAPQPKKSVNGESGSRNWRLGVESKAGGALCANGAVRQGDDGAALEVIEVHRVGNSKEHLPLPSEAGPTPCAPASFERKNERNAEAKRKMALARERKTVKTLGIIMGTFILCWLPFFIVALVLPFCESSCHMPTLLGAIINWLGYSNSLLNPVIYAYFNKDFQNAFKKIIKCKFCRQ
Test: Inhibition of 5HT1A receptor at 10 uM
Property Label: inhibition
Reply with a number, then the unit it belongs to.

I am curious: what inhibition value has been reported for `CO[C@@H]1CN(CC2Cc3ccccc3C2)CC[C@H]1n1c(C)nc2cc(C)ccc21` ?
63%

I am curious: what inhibition value has been reported for `CO[C@@H]1CN(C[C@H]2Cc3ccc(Br)cc3C2)CC[C@H]1n1c(C)nc2cc(C)ccc21` ?
31%

I am curious: what inhibition value has been reported for `COC(=O)Nc1ccc2c(c1)C[C@@H](CN1CC[C@@H](n3c(C)nc4cc(C)ccc43)[C@H](OC)C1)C2` ?
29%

I am curious: what inhibition value has been reported for `CO[C@@H]1CN(C[C@H]2Cc3ccc(Br)cc3C2)CC[C@H]1n1c(C(C)(C)O)nc2cc(C)ccc21` ?
17%

I am curious: what inhibition value has been reported for `CO[C@@H]1CN(C[C@H]2Cc3ccc(C#N)cc3C2)CC[C@H]1n1c(C(C)(C)O)nc2cc(C)ccc21` ?
14%
